- measured-on: Purified recombinant ADAMTS-7 (rat prodomain/human catalytic domain, SEQ ID No. 01 or 02) (Homo sapiens)
- Construct: rat ADAMTS-7 signal peptide + prodomain (rat 1-217, Q1EHB3) (N); 2xStrep tag (C); 6xHis tag (C)
- Sequence (Q9UKP4 237-537): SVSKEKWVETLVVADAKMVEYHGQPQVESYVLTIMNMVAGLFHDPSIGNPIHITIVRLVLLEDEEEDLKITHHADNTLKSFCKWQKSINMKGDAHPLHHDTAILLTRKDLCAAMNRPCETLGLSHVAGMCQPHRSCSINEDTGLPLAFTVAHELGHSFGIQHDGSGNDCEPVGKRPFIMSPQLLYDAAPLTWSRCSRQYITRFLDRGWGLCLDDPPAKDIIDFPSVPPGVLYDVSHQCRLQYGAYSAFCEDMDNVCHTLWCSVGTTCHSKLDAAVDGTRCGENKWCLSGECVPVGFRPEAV
- experiment-notes: Assay for ADAMTS-7 enzymatic activity (FRET substrate cleavage)
- condition-notes: FRET substrate SEQ ID No. 11, 120 min at 32° C.; read-out: ADAMTS7-IC50

| compound | IC50 |
| --- | --- |
| CC(C)(C)C1(CNC(=O)c2cnn(-c3ccccc3)n2)NC(=O)NC1=O (racemic) [Example 49] | 70 nM |
| N#Cc1cccc(-n2ncc(C(=O)NC[C@@]3(C4CC4)NC(=O)NC3=O)n2)c1 | 32 nM |
| CC(C)C1(CNC(=O)c2cnn(-c3ccc(Cl)c(F)c3)n2)NC(=O)NC1=O (single isomer, unassigned; ent-2) [Example 125] | 7 nM |
| CC1(CNC(=O)c2cnn(-c3ccc(F)cc3)n2)NC(=O)NC1=O (racemic) [Example 152] | 560 nM |
| O=C1NC(=O)C(CNC(=O)c2cnn(-c3ccc(F)c(F)c3)n2)(c2nccs2)N1 (single isomer, unassigned; ent-2) | 7 nM |
| O=C1NC(=O)[C@](CNC(=O)c2cnn(-c3nc4ccccc4s3)n2)(C2CC2)N1 | 190 nM |
| CCC1(CNC(=O)c2cnn(-c3ccc(F)cc3)n2)NC(=O)NC1=O (racemic) | 200 nM |
| O=C1NC(=O)[C@](CNC(=O)c2cnn(-c3ccc(C(F)(F)F)c(F)c3)n2)(C2CC2)N1 | 120 nM |
| CC(C)C1(CNC(=O)c2cnn(-c3ccc(F)cc3F)n2)NC(=O)NC1=O (single isomer, unassigned; ent-2) [Example 88] | 98 nM |
| O=C1NC(=O)C(CNC(=O)c2cnn(-c3ccccc3)n2)(C2CCC2)N1 (centres unmarked) [Example 79] | 78 nM |
| O=C1NC(=O)C(CNC(=O)c2cnn(-c3ccc(F)cc3)n2)(CC2CC2)N1 (racemic) [Example 64] | 240 nM |
| O=C1NC(=O)[C@](CNC(=O)c2cnn(-c3ccc(Cl)c(F)c3)n2)(C2CC2)N1 | 12 nM |
| O=C1NC(=O)C(CNC(=O)c2cnn(-c3ccc(F)cc3)n2)(c2ccccc2)N1 (racemic) | 69 nM |
| O=C1NC(=O)C(CNC(=O)c2cnn(-c3ccc(F)cc3)n2)(C2CCCC2)N1 (centres unmarked) [Example 74] | 33 nM |
